- assay-target: UniProtKB P22001
- test-name: Kv1.3 potassium channel blocker activity, automated whole-cell patch clamp (Patchliner)
- experimental-conditions: CHO-K1 cells stably expressing Kv1.3; whole cell current inhibition; read-out: Kv1.3_IC50
pIC50: −log10 of the molar value.
metric-name: pIC50

compound	measured
N[C@@H](c1cc(Cl)c(Cl)cc1O)C1CCN(C(=O)[C@H]2CCN2)CC1	> 6.30
N[C@H](c1cc(Cl)c(Cl)cc1O)C1CCN(C(=O)[C@@H]2CCNC2)CC1 (single isomer, unassigned)	> 5.00
CCNC(c1cc(Cl)c(Cl)cc1O)C1CCN(C(=O)C(O)CO)CC1 (stereo not shown)	> 5.00
N[C@@H](c1cc(Cl)c(Cl)cc1O)C1CCN(C(=O)C2CC3(CC(O)C3)C2)CC1 (stereo partly shown)	> 5.00

Item N[C@@H](c1cc(Cl)c(Cl)cc1O)C1CCN(C(=O)C2CC(O)(CO)C2)CC1 (stereo partly shown) was tested on UniProtKB P22001; the reported pIC50 is > 6.30

pIC50 for UniProtKB P22001 with input `N[C@@H](c1cc(Cl)ccc1O)C1CCN(C(=O)[C@H](O)CO)CC1` equals > 5.00

Summary line: `Nc1ccnc(N2CCC([C@@H](N)c3cc(Cl)c(Cl)cc3O)CC2)c1` , UniProtKB P22001, reported pIC50 = > 6.30

----------
- assay-target: Kv1.3 potassium channel (Homo sapiens, UniProt P22001)
- Sequence (P22001 whole entry): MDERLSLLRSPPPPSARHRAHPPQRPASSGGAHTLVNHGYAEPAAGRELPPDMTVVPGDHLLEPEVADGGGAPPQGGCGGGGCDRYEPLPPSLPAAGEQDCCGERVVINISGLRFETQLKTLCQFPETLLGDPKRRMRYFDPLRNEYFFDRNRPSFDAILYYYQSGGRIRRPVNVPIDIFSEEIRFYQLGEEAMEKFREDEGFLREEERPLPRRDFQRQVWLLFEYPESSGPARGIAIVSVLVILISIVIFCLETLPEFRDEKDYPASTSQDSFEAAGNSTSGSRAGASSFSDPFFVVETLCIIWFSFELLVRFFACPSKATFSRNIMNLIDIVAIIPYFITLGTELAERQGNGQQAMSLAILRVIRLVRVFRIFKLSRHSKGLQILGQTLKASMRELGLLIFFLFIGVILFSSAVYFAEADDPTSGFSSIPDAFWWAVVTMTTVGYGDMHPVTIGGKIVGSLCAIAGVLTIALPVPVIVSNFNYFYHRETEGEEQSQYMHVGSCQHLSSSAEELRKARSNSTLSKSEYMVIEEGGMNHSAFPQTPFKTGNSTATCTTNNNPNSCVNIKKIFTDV
- test-name: Kv1.3 potassium channel blocker activity, automated whole-cell patch clamp (Patchliner)
- experimental-conditions: CHO-K1 cells stably expressing Kv1.3; whole cell current inhibition; read-out: Kv1.3_IC50
pIC50: −log10 of the molar value.
metric-name: pIC50

molecule	pIC50
Cc1ccc([C@H](N)C2CCN(C(=O)[C@H](O)CO)CC2)c(O)c1	> 5.00
N[C@@H](c1cc(Cl)c(Cl)cc1O)C1CCN(C(=O)[C@@H]2OCC[C@@H]2O)CC1	> 6.30
C[C@H](O)[C@H](N)C(=O)N1CCC([C@@H](N)c2cc(Cl)c(Cl)cc2O)CC1	> 6.30
O=S(=O)([C@H]1CCNC1)N1CCC([C@@H](O)c2cc(Cl)c(Cl)cc2O)CC1 (single isomer, unassigned; isomer 1)	> 6.30
CCc1cc(O)c([C@H](N)C2CCN(C(=O)[C@H](O)CO)CC2)cc1Cl	> 6.30

Reported pIC50 ( NCC(c1cc(Cl)c(Cl)cc1O)C1CCNCC1 (stereo not drawn) ) = > 5.00

Per the record, N[C@@H](c1cc(Cl)c(Cl)cc1O)[C@H]1CCN(C(=O)[C@H](O)CO)C1 (single isomer, unassigned; isomer 2) has pIC50 of > 5.00

The recorded pIC50 for entry CC(C)(O)CN1CCC(C(N)c2cc(Cl)c(Cl)cc2O)CC1 (stereo not drawn) equals > 5.00

The molecule listed as `C[C@H](CO)C(=O)N1CCC([C@@H](N)c2cc(Cl)c(Cl)cc2O)CC1` shows pIC50 equal to > 6.30

----------
- assay-target: UniProt:P22001
- test-name: Kv1.3 potassium channel blocker activity, automated whole-cell patch clamp (Patchliner)
- experimental-conditions: CHO-K1 cells stably expressing Kv1.3; whole cell current inhibition; read-out: Kv1.3_IC50
pIC50: −log10 of the molar value.
metric-name: pIC50

Here are 3 molecules together with their reported answers.
molecule	pIC50
C[C@@H]1C[C@@H]([C@@H](N)c2cc(Cl)c(Cl)cc2O)CCN1C(=O)[C@H](O)CO	> 5.00
NCC(=O)N1CCC([C@@H](N)c2cc(Cl)c(Cl)cc2O)CC1	> 6.30
O=C([C@@H]1CCNC1)N1CCC([C@@H](O)c2cc(Cl)c(Cl)cc2O)CC1 (single isomer, unassigned)	> 6.30

Below: the item to evaluate.
According to the records, this molecule N[C@@H](c1cc(Cl)c(Cl)cc1O)C1CCN(C(=O)C2CNC(=O)CO2)CC1 (stereo partly shown) displays pIC50 of > 6.30
